# Tested on: NCI-H358 cells (express KRas G12C), Phospho-ERK
# test_summary: Cellular inhibition of KRas G12C: Phospho-ERK in NCI-H358 cells
# Format: cell-based
# condition_label: Homo sapiens, NCI-H358, 3 h, pERK(Thr202/Tyr204) normalized with GAPDH; NCI-H358 cells; 3 hours; read-out: IC50
pIC50: −log10 of the molar value.
reported_metric: pIC50

>>> df
                                   compound  reported_metric   assay_result
0  C=CC(=O)N1CCN(c2nc(OCCN3CCCC(F)(F)C3)nc3c2CCN(c2cccc4cccc(Cl)c24)C3)C[C@@H]1CC#N            pIC50  6.00 to 10.00
1  C=CC(=O)N1CCN(c2nc(OC[C@@H](O)CN3CCOCC3)nc3c2CCN(c2cc(O)cc4ccccc24)C3)CC1 (single isomer, unassigned)            pIC50         < 6.00
2  C=CC(=O)N1CCN(c2nc(OC[C@@H]3CCCN3C)nc3c2CCN(c2ccccc2OC(F)(F)F)C3)CC1CC#N (stereo partly drawn)            pIC50  6.00 to 10.00
3  C=CC(=O)N1CCN(c2nc(OC[C@@H]3CCCN3CC)nc3c2CCN(c2cc(O)cc4ccccc24)C3)CC1            pIC50  6.00 to 10.00
4  C=CC(=O)N1CCN(c2nc(OC[C@@H]3CCCN3CC)nc3c2CCN(c2cccc4ccccc24)C3)C[C@@H]1CC#N            pIC50  6.00 to 10.00

For every listed record, write down its pIC50.
1. C=CC(=O)N1CCN(c2nc(OC[C@@H]3C[C@H](O)CN3C)nc3c2CCN(c2cccc4ccccc24)C3)CC1CC#N (stereo partly drawn)
2. C=CC(=O)N1CCN(c2nc(OC[C@@H]3CCCN3C)nc3c2CCN(c2cccc4cccc(CC)c24)C3)C[C@@H]1CC#N

**A:**
["6.00 to 10.00", "6.00 to 10.00"]
